// data source = patent US20260374773A1

biological target: FLT3 (Homo sapiens); assay: DiscoverX KINOMEscan active site-directed competition binding, FLT3; details: Table 18; no ATP
pKd: −log10 of the molar value.
property.name: pKd

Please review the following examples before continuing.
{"compound": "COc1cn2ncc(-c3nc(N[C@H]4CNCC[C@@H]4F)ncc3F)c2nc1C(C)(C)O [Compound 6a]", "pKd": 9.33}
{"compound": "COc1cn2ncc(-c3nc(N[C@H]4CNCC[C@@H]4F)ncc3F)c2nc1C1CC1 [Compound 15a]", "pKd": "> 9.77"}
{"compound": "COc1cn2ncc(-c3cncc(N[C@H]4CNCC[C@@H]4F)n3)c2nc1C1CC1 [Compound 12a]", "pKd": "> 9.77"}
{"compound": "COc1cn2ncc(-c3nc(N[C@@H]4CCCNC4)ncc3F)c2nc1C1CC1 [Compound 14a]", "pKd": "> 9.77"}

Switching to the query record.
Here COc1cn2ncc(-c3ccnc(N[C@H]4CNCC[C@@H]4F)n3)c2nc1C1CC1 [Compound 7a] was tested on FLT3 (Homo sapiens), and its pKd came to > 9.77

---

biological target: IRAK4 (Homo sapiens); assay: RBC HotSpot kinase inhibition assay, IRAK4; type: biochemical; conditions: Table 11; isolated kinase, 33P-ATP, 2 h
Sequence (Q9NWZ3 whole entry): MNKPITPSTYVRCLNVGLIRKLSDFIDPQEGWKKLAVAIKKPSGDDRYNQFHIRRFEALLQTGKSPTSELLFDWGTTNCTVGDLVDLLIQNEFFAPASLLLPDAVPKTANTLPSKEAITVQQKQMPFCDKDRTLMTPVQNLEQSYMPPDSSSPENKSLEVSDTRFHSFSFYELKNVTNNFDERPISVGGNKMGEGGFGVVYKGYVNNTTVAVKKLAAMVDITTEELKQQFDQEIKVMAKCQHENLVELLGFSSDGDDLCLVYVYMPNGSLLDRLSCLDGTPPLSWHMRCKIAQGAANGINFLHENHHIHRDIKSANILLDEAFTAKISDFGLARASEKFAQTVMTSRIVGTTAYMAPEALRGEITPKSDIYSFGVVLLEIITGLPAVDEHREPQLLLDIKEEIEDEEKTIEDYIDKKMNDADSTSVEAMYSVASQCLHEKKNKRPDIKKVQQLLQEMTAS
property.name: pIC50
# reply with the number alone; pIC50 is -log10 of concentration in mol/L

{"molecular.string": "F[C@H]1CNC[C@@H]1Nc1cccc(-c2cnn3cc(Cl)cnc23)n1", "property.name": "pIC50", "recorded.result": 6.31}

Switching to the query record.
The value of pIC50 measured for the molecule "COc1cn2ncc(-c3nc(N[C@H]4CNCC[C@@H]4F)c(F)cc3F)c2nc1C(C)(C)O" turned out to be 8.70

---

molecular target: FLT3 N841I (Homo sapiens, UniProt P36888, N841I); assay: DiscoverX KINOMEscan active site-directed competition binding, FLT3 N841I; conditions: Table 13; no ATP
property.name: Kd (nM)
Record the value in nM, omitting the unit from your answer.

{"compound": "COc1cn2ncc(-c3nc(N[C@H]4CNCC[C@@H]4F)c(F)cc3F)c2nc1C(C)(C)O [Compound 13]", "Kd [nM]": 0.79}

Switching to the query record.
The value of Kd measured for the compound COc1cn2ncc(-c3nc(N[C@H]4CNCC[C@@H]4F)c(C#N)cc3F)c2nc1C(C)(C)O [Compound 10] turned out to be 0.48

---

Entries and their measured pKd follow.
Target: FLT3 ITD (Homo sapiens, UniProt P36888, ITD)
Construct: T7 phage/E. coli or HEK-293 expression
Assay: DiscoverX KINOMEscan active site-directed competition binding, FLT3 ITD
Settings: Table 18; no ATP
From the text: Kinase binding data were obtained for various exemplary compounds prepared according to Examples 1-8 using the DiscoverX KINOMEscan® active site-directed competition binding site-directed assay protocol described below. […] Compounds that directly or indirectly prevent kinase binding to the immobilized ligand reduce the amount of kinase captured on the solid support, which is detected using an ultra-sensitive qPCR method. […]
# reply with the number alone; pKd is -log10 of concentration in mol/L

{"compound": "COc1cn2ncc(-c3nc(N[C@H]4CNCC[C@@H]4F)ncc3F)c2nc1C(C)(C)O", "pKd": 9.64}
{"compound": "COc1cn2ncc(-c3cncc(N[C@H]4CNCC[C@@H]4F)n3)c2nc1C1CC1 [Compound 12a]", "pKd": 9.41}
{"compound": "COc1cn2ncc(-c3ccnc(N[C@H]4CNCC[C@@H]4F)n3)c2nc1C1CC1", "pKd": 9.28}

Switching to the query record.
The value of pKd measured for the compound COc1cn2ncc(-c3nc(N[C@H]4CNCC[C@@H]4F)ncc3F)c2nc1C1CC1 [Compound 15a] turned out to be 9.60

---

Biological target: FLT3 K663Q (Homo sapiens, UniProt P36888, K663Q)
Sequence (P36888 27-993 K663Q): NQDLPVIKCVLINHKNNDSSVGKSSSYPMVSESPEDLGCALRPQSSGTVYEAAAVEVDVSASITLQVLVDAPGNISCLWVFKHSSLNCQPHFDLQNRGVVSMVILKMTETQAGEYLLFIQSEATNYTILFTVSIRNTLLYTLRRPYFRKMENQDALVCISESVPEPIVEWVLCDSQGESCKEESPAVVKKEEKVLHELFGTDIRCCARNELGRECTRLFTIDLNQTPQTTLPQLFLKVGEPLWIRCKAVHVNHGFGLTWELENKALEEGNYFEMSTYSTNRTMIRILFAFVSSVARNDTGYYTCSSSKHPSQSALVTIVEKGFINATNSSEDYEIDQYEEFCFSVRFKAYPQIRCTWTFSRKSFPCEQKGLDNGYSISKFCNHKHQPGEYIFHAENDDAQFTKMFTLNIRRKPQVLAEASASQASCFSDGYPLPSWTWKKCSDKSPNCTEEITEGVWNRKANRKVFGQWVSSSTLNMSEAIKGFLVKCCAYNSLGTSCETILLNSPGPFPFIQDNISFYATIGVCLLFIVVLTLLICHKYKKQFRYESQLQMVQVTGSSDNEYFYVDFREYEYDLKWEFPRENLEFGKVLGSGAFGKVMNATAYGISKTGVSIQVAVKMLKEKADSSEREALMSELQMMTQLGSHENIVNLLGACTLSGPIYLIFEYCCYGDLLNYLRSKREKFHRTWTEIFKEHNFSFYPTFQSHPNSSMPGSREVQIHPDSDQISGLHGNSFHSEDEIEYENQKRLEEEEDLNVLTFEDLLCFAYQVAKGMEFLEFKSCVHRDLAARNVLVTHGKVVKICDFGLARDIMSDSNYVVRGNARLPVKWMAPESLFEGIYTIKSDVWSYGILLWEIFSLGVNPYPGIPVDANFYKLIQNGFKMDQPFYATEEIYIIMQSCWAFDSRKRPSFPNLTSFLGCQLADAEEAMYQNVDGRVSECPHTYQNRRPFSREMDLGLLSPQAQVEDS
Assay: DiscoverX KINOMEscan active site-directed competition binding, FLT3 K663Q
Conditions: Table 19; no ATP
Entries and their measured Kd follow.

{"molecule": "COc1cn2ncc(-c3cncc(N[C@H]4CNCC[C@@H]4F)n3)c2nc1C1CC1 [Compound 12a]", "recorded.result": "0.44 nM"}

The value of Kd measured for the molecule COc1cn2ncc(-c3ccnc(N[C@H]4CNCC[C@@H]4F)n3)c2nc1C1CC1 [Compound 7a] turned out to be 0.82 nM

The value of Kd measured for the molecule COc1cn2ncc(-c3nc(N[C@H]4CNCC[C@@H]4F)ncc3F)c2nc1C(C)(C)O [Compound 6a] turned out to be 2 nM

The value of Kd measured for the molecule COc1cn2ncc(-c3nc(N[C@H]4CNCC[C@@H]4F)ncc3F)c2nc1C1CC1 [Compound 15a] turned out to be 0.21 nM

The value of Kd measured for the molecule COc1cn2ncc(-c3nc(N[C@@H]4CCCNC4)ncc3F)c2nc1C1CC1 [Compound 14a] turned out to be < 0.17 nM

---

molecular target: FLT3 (Homo sapiens); assay: NanoBRET target engagement assay in HEK-293 cells, FLT3; type: cell-based; conditions: Table 20; live HEK-293 cells, 1 h
pIC50: −log10 of the molar value.
Decision: pIC50 >= 8 yields Met, all other cases yield Not met.

These recorded examples may help you get a feel for the data.
{"compound": "COc1cn2ncc(-c3nc(N[C@H]4CNC[C@@H]4F)ncc3F)c2nc1C(C)(C)O [Compound 5a]", "study.system": "FLT3 (Homo sapiens)", "assigned.category": "Not met"}
{"compound": "COc1cn2ncc(-c3cncc(N[C@@H]4CCCNC4)n3)c2nc1C1CC1 [Compound 11a]", "study.system": "FLT3 (Homo sapiens)", "assigned.category": "Met"}

QUERY: Textbook exercise: given the entry COc1cn2ncc(-c3ccnc(N[C@H]4CNCC[C@@H]4F)n3)c2nc1C(C)(C)O [Compound 3a] , state whether its pIC50 is greater than or equal to 8.
RESULT: Not met

---

target: FLT3 D835V (Homo sapiens, UniProt P36888, D835V); assay: DiscoverX KINOMEscan active site-directed competition binding, FLT3 D835V; details: Table 12; no ATP
Entries and their measured Kd follow.

Please review the following examples before continuing.
{"molecular.string": "COc1cn2ncc(-c3nc(N[C@H]4CNCC[C@@H]4F)c(F)cc3F)c2nc1C(C)(C)O", "Kd": "< 0.17 nM"}
{"molecular.string": "COc1cn2ncc(-c3nc(N[C@H]4CNCC[C@@H]4F)c(C#N)cc3F)c2nc1C(C)(C)O", "Kd": "< 0.17 nM"}

The value of Kd measured for the molecule "COc1cn2ncc(-c3nc(N[C@H]4CNCC[C@@H]4F)c(C#N)cc3F)c2nc1C1CC1" turned out to be < 0.17 nM

---

Entries and their measured pIC50 follow.
biological target: FLT3 (Homo sapiens); assay: RBC HotSpot kinase inhibition assay, FLT3; assay type: biochemical; settings: Table 17; isolated kinase, 33P-ATP, 2 h
pIC50: −log10 of the molar value.

Please review the following examples before continuing.
{"compound": "COc1cn2ncc(-c3nc(N[C@H]4CNC[C@@H]4F)ncc3F)c2nc1C(C)(C)O", "study.system": "FLT3 (Homo sapiens)", "recorded.result": "> 9.30"}
{"compound": "COc1cn2ncc(-c3cncc(N[C@H]4CNC[C@@H]4F)n3)c2nc1C1CC1 [Compound 10a]", "study.system": "FLT3 (Homo sapiens)", "recorded.result": "> 9.30"}
{"compound": "COc1cn2ncc(-c3ccnc(N[C@@H]4CCCNC4)n3)c2nc1C1CC1", "study.system": "FLT3 (Homo sapiens)", "recorded.result": "> 9.30"}
{"compound": "COc1cn2ncc(-c3cncc(N[C@@H]4CCCNC4)n3)c2nc1C1CC1 [Compound 11a]", "study.system": "FLT3 (Homo sapiens)", "recorded.result": "> 9.30"}

The value of pIC50 measured for the compound "COc1cn2ncc(-c3ccnc(N[C@H]4CNCC[C@@H]4F)n3)c2nc1C1CC1" turned out to be > 9.30

The value of pIC50 measured for the compound "COc1cn2ncc(-c3ccnc(N[C@H]4CNC[C@@H]4F)n3)c2nc1C1CC1" turned out to be > 9.30

The value of pIC50 measured for the compound COc1cn2ncc(-c3nc(N[C@H]4CNC[C@@H]4F)ncc3F)c2nc1C1CC1 [Compound 13a] turned out to be > 9.30

The value of pIC50 measured for the compound "COc1cn2ncc(-c3ccnc(N[C@H]4CNCC[C@@H]4F)n3)c2nc1C(C)(C)O" turned out to be 9.15

The value of pIC50 measured for the compound "COc1cn2ncc(-c3nc(N[C@@H]4CCCNC4)ncc3F)c2nc1C(C)(C)O" turned out to be > 9.30

The value of pIC50 measured for the compound COc1cn2ncc(-c3nc(N[C@H]4CNCC[C@@H]4F)ncc3F)c2nc1C1CC1 [Compound 15a] turned out to be 9.15

The value of pIC50 measured for the compound "COc1cn2ncc(-c3nc(N[C@H]4CNCC[C@@H]4F)ncc3F)c2nc1C(C)(C)O" turned out to be > 9.30

The value of pIC50 measured for the compound "COc1cn2ncc(-c3ccnc(N[C@@H]4CCCNC4)n3)c2nc1C(C)(C)O" turned out to be 8.10

The value of pIC50 measured for the compound COc1cn2ncc(-c3cncc(N[C@H]4CNCC[C@@H]4F)n3)c2nc1C1CC1 [Compound 12a] turned out to be > 9.30

The value of pIC50 measured for the compound "COc1cn2ncc(-c3ccnc(N[C@H]4CNC[C@@H]4F)n3)c2nc1C(C)(C)O" turned out to be 8.70

The value of pIC50 measured for the compound COc1cn2ncc(-c3nc(N[C@@H]4CCCNC4)ncc3F)c2nc1C1CC1 [Compound 14a] turned out to be > 9.30
